- ASSAYED_TARGET: human GLP-1 receptor (human, UniProt P43220 24-463)
- EXPERIMENTAL_PROTOCOL: cell-based or functional assay
Property: GLP-1 activity (EC50, pM, 1% HSA); scope: individual binders
The reply should be a number in pM, with the unit left off.

In the examples that follow, each entry is paired with its recorded GLP-1 activity (EC50, pM, 1% HSA).
BINDER | GLP-1 activity (EC50, pM, 1% HSA) (pM)
MLC087 (ligand, Moiety B (HOOC-(CH2)16-CO-gGlu-2XADO-EDA-CO-CH2) on 41C of Linker (72C of fusion polypeptide)) HGEGTFTSDVSSYLEEQAAKEFIAWLVRGGGGAQPGAQPGAQPGAQPGAQPGAQPGAQPGAQPGQEPGAQPCQEPGAQPGQEPGAQPGQEPGAQPGQEPGAQPGQEPGAQPARQGDHCPLGPGRCCRLHTVRASLEDLGWADWVLSPREVQVTMCIGACPSQFRAANLHAQIKTSLHRLKPDTVPAPCCVPASYNPMVLIQKTDTGVSLQTYDDLLAKDCHCI | 24.4
MLC123 (ligand, Moiety B (HOOC-(CH2)16-CO-gGlu-2XADO-EDA-CO-CH2) on 79C of Linker (110C of fusion polypeptide)) HGEGTFTSDVSSYLEEQAAKEFIAWLVRGGGGAQPGAQPGAQPGAQPGAQPGAQPGAQPGAQPGQEPGAQPGQEPGAQPGQEPGAQPGQEPGAQPGQEPGAQPGQEPGQCPARQGDHCPLGPGRCCRLHTVRASLEDLGWADWVLSPREVQVTMCIGACPSQFRAANLHAQIKTSLHRLKPDTVPAPCCVPASYNPMVLIQKTDTGVSLQTYDDLLAKDCHCI | 9.53

Consider now this further binder.
Consider the binder MLC105 (ligand, Moiety B (HOOC-(CH2)16-CO-gGlu-2XADO-EDA-CO-CH2) on 17C of Linker (48C of fusion polypeptide)) HGEGTFTSDVSSYLEEQAAKEFIAWLVRGGGGAQPGAQPGAQPGAQPCQAPGAQPGAQPGAQPGQEPGAQPGQEPGAQPGQEPGAQPGQEPGAQPGQEPGAQPGQEPGAQPARQGDHCPLGPGRCCRLHTVRASLEDLGWADWVLSPREVQVTMCIGACPSQFRAANLHAQIKTSLHRLKPDTVPAPCCVPASYNPMVLIQKTDTGVSLQTYDDLLAKDCHCI . State its measured GLP-1 activity (EC50, pM, 1% HSA).
168
